Data origin: patent US12187742B2

- targetOrTestSystem: ATM (Homo sapiens (Human))
- Sequence (Q13315 whole entry): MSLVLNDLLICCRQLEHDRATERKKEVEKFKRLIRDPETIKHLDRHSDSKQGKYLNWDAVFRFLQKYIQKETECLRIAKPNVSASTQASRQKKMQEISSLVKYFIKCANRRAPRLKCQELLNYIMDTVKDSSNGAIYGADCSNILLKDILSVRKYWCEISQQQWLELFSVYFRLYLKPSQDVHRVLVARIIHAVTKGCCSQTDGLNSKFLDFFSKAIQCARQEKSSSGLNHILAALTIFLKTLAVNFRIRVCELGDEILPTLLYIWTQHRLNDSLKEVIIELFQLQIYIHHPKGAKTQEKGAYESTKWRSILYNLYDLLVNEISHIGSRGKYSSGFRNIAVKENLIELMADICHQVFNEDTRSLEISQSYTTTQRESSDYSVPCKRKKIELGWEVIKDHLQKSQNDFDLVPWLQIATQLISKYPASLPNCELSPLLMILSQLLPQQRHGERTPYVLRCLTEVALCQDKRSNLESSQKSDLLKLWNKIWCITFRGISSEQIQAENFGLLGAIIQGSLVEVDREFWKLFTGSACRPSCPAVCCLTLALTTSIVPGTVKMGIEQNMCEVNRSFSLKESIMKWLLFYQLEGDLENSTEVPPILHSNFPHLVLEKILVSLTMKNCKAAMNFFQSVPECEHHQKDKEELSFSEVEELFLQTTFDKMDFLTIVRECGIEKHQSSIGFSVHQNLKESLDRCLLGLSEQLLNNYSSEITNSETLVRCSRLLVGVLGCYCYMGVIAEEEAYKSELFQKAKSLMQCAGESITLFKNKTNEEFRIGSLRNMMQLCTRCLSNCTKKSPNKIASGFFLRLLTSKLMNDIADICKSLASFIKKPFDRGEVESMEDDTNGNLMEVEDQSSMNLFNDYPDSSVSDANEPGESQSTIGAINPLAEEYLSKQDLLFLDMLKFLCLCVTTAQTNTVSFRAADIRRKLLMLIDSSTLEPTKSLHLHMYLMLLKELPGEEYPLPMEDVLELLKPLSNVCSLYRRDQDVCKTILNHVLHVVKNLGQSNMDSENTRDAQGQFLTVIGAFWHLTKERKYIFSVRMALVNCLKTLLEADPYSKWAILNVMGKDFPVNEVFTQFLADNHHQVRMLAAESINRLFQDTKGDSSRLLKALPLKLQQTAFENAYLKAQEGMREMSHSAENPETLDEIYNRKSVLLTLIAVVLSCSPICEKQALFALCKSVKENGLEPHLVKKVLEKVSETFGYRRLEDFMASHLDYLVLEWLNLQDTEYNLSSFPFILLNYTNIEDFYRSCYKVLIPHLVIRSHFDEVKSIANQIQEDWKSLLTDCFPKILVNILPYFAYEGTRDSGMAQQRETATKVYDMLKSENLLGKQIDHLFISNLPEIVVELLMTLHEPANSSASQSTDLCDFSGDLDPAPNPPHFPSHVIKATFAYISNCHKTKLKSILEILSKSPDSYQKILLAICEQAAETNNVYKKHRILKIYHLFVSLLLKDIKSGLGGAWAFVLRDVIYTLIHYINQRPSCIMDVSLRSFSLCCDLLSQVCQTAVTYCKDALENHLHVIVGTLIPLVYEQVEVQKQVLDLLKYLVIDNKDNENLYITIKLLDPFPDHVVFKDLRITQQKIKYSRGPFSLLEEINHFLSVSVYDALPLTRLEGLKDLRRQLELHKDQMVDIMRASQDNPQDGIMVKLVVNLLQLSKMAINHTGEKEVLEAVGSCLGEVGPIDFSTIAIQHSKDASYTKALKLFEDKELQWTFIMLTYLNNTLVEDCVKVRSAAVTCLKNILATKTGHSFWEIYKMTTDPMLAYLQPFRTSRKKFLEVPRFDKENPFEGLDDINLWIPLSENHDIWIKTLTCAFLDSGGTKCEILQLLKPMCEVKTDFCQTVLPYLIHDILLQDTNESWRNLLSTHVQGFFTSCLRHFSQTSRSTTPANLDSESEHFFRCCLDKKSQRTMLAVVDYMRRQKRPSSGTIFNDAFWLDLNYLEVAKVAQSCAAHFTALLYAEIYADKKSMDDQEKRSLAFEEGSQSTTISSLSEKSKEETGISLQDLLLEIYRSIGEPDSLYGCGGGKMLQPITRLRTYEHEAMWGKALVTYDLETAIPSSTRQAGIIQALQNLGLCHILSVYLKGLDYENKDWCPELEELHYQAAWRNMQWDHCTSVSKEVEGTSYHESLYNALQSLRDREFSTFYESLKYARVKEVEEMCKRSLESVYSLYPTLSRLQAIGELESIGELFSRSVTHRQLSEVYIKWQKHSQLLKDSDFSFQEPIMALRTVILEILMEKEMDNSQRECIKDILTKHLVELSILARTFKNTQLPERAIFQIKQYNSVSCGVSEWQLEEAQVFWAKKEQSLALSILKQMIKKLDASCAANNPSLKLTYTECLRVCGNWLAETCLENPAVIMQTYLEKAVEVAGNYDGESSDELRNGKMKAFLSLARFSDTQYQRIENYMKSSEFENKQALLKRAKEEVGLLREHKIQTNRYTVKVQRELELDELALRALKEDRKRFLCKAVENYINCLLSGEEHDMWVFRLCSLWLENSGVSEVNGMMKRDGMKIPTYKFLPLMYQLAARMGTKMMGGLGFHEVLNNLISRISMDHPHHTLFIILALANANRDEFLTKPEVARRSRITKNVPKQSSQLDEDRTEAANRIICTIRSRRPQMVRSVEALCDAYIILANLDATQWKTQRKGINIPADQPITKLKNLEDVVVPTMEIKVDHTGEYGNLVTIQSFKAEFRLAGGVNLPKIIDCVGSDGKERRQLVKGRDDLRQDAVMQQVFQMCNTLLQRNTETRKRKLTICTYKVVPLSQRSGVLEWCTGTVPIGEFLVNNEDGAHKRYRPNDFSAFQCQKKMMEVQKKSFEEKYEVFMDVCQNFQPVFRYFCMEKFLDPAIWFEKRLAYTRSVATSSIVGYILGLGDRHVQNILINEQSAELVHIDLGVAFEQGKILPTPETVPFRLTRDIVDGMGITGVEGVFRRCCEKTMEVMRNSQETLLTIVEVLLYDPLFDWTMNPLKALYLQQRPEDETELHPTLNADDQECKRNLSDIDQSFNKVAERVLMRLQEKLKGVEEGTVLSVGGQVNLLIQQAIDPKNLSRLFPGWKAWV
- assaySummary: ATM in Cell Western Assay (pKAP1 in etoposide-treated MCF-7 cells)
- Format: cell-based
- testSettings: MCF-7 cells, etoposide 100 μM, 1 hr, pKAP1 readout
pIC50: −log10 of the molar value.
metricName: pIC50

Example results:
CN1C(=O)C2(CC2)c2c1cnc1ccc(-c3cnc(N4CCC(N5CCCCC5)CC4)c(NS(=O)(=O)c4ccccc4)c3)cc21 [Example 213, methanesulfonate] | 7.00 to 9.00
CN(C)CCCOc1ncc(-c2ccc3ncc4c(c3c2)C2(CC2)C(=O)N4C)cc1NS(=O)(=O)c1cc(Cl)cc(Cl)c1 [Example 125] | 7.00 to 9.00

Task: Bench note: what pIC50 did CN(C)CCCOc1ncc(-c2ccc3ncc4c(c3c2)C2(CC2)C(=O)N4C)cc1NS(=O)(=O)c1cccc(C(F)(F)F)c1 [Example 106] show?
Result: 7.00 to 9.00
